Test protocol: Toxicity in high fat diet-STZ-induced diabetic Swiss albino mouse model assessed as changes in body weight at 0.2 mmol/Kg/day, po administered for 14 days (reference value: 26.6 to 27.8 g)
Type: organism-based
Assay setup: in vivo, 336 h, time 14 day
A collection of compounds and their measured Activity
Only the number, expressed in g, is required.

Example compounds with recorded Activity:
Ask: Field request: Activity | item: COCCOC(=O)C1=C(C)NC(C)=C(C(=O)OC)C1c1cccc2c1OCO2 (stereo not given)
Reply: 28.3

Ask: Consider next the compound CCOC(=O)C1=C(C)NC(C)=C(C(=O)OCC)C1c1ccc2c(c1)Cc1ccccc1-2 in the same way.
Reply: 29.3

Ask: Consider next the compound COC(=O)C1=C(C)NC(C)=C(C(=O)OCc2ccccc2)C1c1cccc2c1OCO2 (stereo not given) in the same way.
Reply: 27.4

Ask: Consider next the compound COC(=O)C1=C(C)NC(C)=C(C(=O)OC)C1c1ccc2c(c1)OCCO2 in the same way.
Reply: 27.3

---
Ask: Field request: Activity | item: CC1=C(C(=O)OCc2ccccc2)C(c2cccc3c2OCO3)C(C(=O)OCc2ccccc2)=C(C)N1
Reply: 27.3
